Reported pIC50, angiotensin II receptor (Rattus norvegicus).
Structures can show the parent of a compound that is named as a salt.
Give bare numbers, as −log10 of the molar value.

// solved cases for pIC50 follow
- COMPOUND: "CCCCc1nc(Cl)c(CO)n1Cc1ccc2nn(-c3ccccc3-c3nnn[nH]3)c(Br)c2c1 [Example 14]"
  READOUT TYPE: "pIC50"
  ASSAY VALUE: 8.60
- COMPOUND: "CCCCc1nc2cccnc2n1Cc1ccc2nn(-c3ccccc3-c3nnn[nH]3)c(Br)c2c1 [Example 23]"
  READOUT TYPE: "pIC50"
  ASSAY VALUE: 8.51
- COMPOUND: "CCCCc1nc(Cl)c(C=O)n1Cc1ccc2nn(-c3ccccc3-c3nnn[nH]3)c(Br)c2c1 [Example 12]"
  READOUT TYPE: "pIC50"
  ASSAY VALUE: 7.22
- COMPOUND: "CCc1nc2c(C)cc(C)nc2n1Cc1ccc2nn(-c3ccccc3C(=O)O)c(Br)c2c1"
  READOUT TYPE: "pIC50"
  ASSAY VALUE: 8.70

Provide pIC50 for all items below, preserving their order.
1. CCCCc1nc(Cl)c(C=O)n1Cc1ccc2nn(-c3ccccc3C(=O)O)cc2c1 [Example 7]
2. CCCCc1nc2cccnc2n1Cc1ccc2nn(-c3ccccc3C(=O)O)c(Br)c2c1 [sodium salt]

1: 6.89; 2: 8.17

Look up pIC50 for the entries below, preserving their order.
1. CCc1nc2c(C)cc(C)nc2n1Cc1ccc2nn(-c3cccc(Cl)c3-c3nnn[nH]3)c(Br)c2c1 [Example 25]
2. CCCCc1nc(Cl)c(CO)n1Cc1ccc2nn(-c3ccccc3C(=O)O)cc2c1 [Example 5]
3. CCCc1nc2c(C)ccnc2n1Cc1ccc2nn(-c3ccccc3-c3nnn[nH]3)c(Br)c2c1 [Example 22]

1: 9.14; 2: 7.40; 3: 8.74

Assay angiotensin II receptor (Rattus norvegicus), sample CCCCc1nc(C(=O)O)c(Cl)n1Cc1ccc2nn(-c3ccccc3C(=O)O)c(Br)c2c1 [Example 10] , pIC50 read: 6.14
